protocol: SOD-like activity: inhibition of superoxide reduction of nitroblue tetrazolium (DMSO-KO2 / xanthine-xanthine oxidase)
Assay type: biochemical
conditionSummary: relative to Cu-Zn SOD = 100; Table I
measure: Percent Reactivity (SOD-like activity) (%)
Numbers only, in %.

The cases that follow already have their Percent Reactivity (SOD-like activity) on record.
>>> valueobserved("CC(C)(C)c1cc(C(=O)[O-])c(O)c(C(C)(C)C)c1.CC(C)(C)c1cc(C(=O)[O-])c(O)c(C(C)(C)C)c1.[Cu+2] [Cu(II)(3,5-ditertiarybutylsalicylate)2]")
0.74
>>> valueobserved("CC(=O)Oc1ccccc1C(=O)[O-].CC(=O)Oc1ccccc1C(=O)[O-].CC(=O)Oc1ccccc1C(=O)[O-].CC(=O)Oc1ccccc1C(=O)[O-].CS(C)=O.CS(C)=O.[Cu+2].[Cu+2] [Cu(II)2 (acetylsalicylate)4 (DMSO)2]")
0.69
>>> valueobserved("CC(=O)Oc1ccccc1C(=O)[O-].CC(=O)Oc1ccccc1C(=O)[O-].CC(=O)Oc1ccccc1C(=O)[O-].CC(=O)Oc1ccccc1C(=O)[O-].[Cu+2].[Cu+2].c1ccncc1.c1ccncc1 [Cu(II)2 (acetylsalicylate)4 (pyridine)2]")
0.32

query: Using the record for O=C(O)c1ccccc1[O-].O=C(O)c1ccccc1[O-].[Cu+2] [Cu(II)(salicylate)2] , report its Percent Reactivity (SOD-like activity).
result: 0.65

* * *

protocol: SOD-like activity: inhibition of superoxide reduction of nitroblue tetrazolium (DMSO-KO2 / xanthine-xanthine oxidase)
Type: biochemical
conditionSummary: Table I; read-out: Concentration: compound required for 50% inhibition of superoxide reduction of nitroblue tetrazolium
Provide the reported pIC50 of each item.
One number for each entry, as −log10 of the molar value.

Sample answers from the record:
>>> valueobserved("CC(=O)Oc1ccccc1C(=O)[O-].CC(=O)Oc1ccccc1C(=O)[O-].CC(=O)Oc1ccccc1C(=O)[O-].CC(=O)Oc1ccccc1C(=O)[O-].CS(C)=O.CS(C)=O.[Cu+2].[Cu+2] [Cu(II)2 (acetylsalicylate)4 (DMSO)2]")
5.55
>>> valueobserved("CC(=O)Oc1ccccc1C(=O)[O-].CC(=O)Oc1ccccc1C(=O)[O-].CC(=O)Oc1ccccc1C(=O)[O-].CC(=O)Oc1ccccc1C(=O)[O-].[Cu+2].[Cu+2].c1ccncc1.c1ccncc1 [Cu(II)2 (acetylsalicylate)4 (pyridine)2]")
5.57
>>> valueobserved("CC(C)(C)c1cc(C(=O)[O-])c(O)c(C(C)(C)C)c1.CC(C)(C)c1cc(C(=O)[O-])c(O)c(C(C)(C)C)c1.[Cu+2] [Cu(II)(3,5-ditertiarybutylsalicylate)2]")
5.21

Then there is this molecule:
query: Look at this molecule and give its reported pIC50. O=C(O)c1ccccc1[O-].O=C(O)c1ccccc1[O-].[Cu+2] [Cu(II)(salicylate)2]
result: 5.34
